test: PRM target quantification of synthetic mAb peptide standards diluted with DDM, FA or cell digest matrix; type: physicochemical; details: 10 fmol/μl peptide mixture, 0.015% DDM vs 0.1% FA (control), triplicate
Where no end group is shown, it is not given here.
Reported Ratio of Average Peak Area DDM Diluted/FA Diluted values for the following sequences.
Readout Type: Ratio of Average Peak Area DDM Diluted/FA Diluted

query_sequence="DTAVYYCASGS [synthetic mAb CDR peptide standard]" observed_result=0.9
query_sequence="LMIYDVSK [synthetic mAb CDR peptide standard]" observed_result=1.1
query_sequence="TNYLKPTHQTNTIIDVVLSPSH [synthetic mAb constant region peptide standard]" observed_result=18.4
query_sequence="GLEWVAVISYDGSNK [synthetic mAb CDR peptide standard]" observed_result=10.3
query_sequence="LLIYAASNLETGVPSR (also: Arg16 stable isotope labeled, +10 Da) [synthetic mAb CDR peptide standard]" observed_result=5.5

----------
assay: PRM target quantification of synthetic mAb peptide standards diluted with DDM, FA or cell digest matrix; format: physicochemical; conditions: 10 fmol/μl peptide mixture, 0.015% DDM vs 0.1% FA (control), triplicate
Readout Type: Ratio of Average Peak Area DDM Diluted/FA Diluted

substance="VVSVLTVLHQDWLNGK [synthetic mAb constant region peptide standard]" observed_result=12.1
substance="LSCAASGITFSNAWMSWVR [synthetic mAb CDR peptide standard]" observed_result=37.9
substance="DWNQNNWF [synthetic mAb CDR peptide standard]" observed_result=2.4
substance="LSCAASGFTFSNYAMYWVR [synthetic mAb CDR peptide standard]" observed_result=29.4
substance="DNSLTAPYVFGTGTK [synthetic mAb CDR peptide standard]" observed_result=1.4
substance="DIATYYCQQH [synthetic mAb CDR peptide standard]" observed_result=1.1
substance="LLIYDASNLK [synthetic mAb CDR peptide standard]" observed_result=1.2
substance="NQVSLTCLVK [synthetic mAb constant region peptide standard]" observed_result=0.7
substance="VTISCTGSSSNIGTHY [synthetic mAb CDR peptide standard]" observed_result=1.1
substance="TNYLTHR [synthetic mAb CDR peptide standard]" observed_result=1.7
